Molecular target: T1, mOrai1-hOrai1 ECL2 chimeric protein (human/mouse chimera, UniProt Q8BWG9 1-304 (mouse entry))
T1 construct: mouse Orai1 with human ECL2; also called Ch
T1 sequence (Q8BWG9 other isoform, or with tags, fused parts or gaps mutant): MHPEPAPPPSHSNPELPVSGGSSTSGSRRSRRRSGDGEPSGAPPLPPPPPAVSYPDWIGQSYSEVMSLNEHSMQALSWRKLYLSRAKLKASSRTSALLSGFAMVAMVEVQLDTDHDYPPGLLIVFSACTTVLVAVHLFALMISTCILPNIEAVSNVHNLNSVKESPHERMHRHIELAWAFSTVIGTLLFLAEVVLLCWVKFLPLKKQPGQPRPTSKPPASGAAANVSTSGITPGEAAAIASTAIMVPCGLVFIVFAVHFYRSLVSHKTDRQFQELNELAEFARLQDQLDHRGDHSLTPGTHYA
Experiment: FACS, 293EBNA, RFI-POC grade
Design: concentration or dose not given beside the values
assay_readout: percent of control (POC) of FACS Geo Mean

In the examples that follow, each entry is paired with its recorded percent of control (POC) of FACS Geo Mean.
mAb 5B1.1 (antibody, human IgG2, lambda, V domains shown, fully human IgG2 lambda, Campaign 2; also called mAb 5Bl1.1) VH: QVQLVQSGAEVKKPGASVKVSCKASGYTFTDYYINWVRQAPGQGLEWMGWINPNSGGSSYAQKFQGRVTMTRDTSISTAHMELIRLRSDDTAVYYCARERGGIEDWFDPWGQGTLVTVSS VL: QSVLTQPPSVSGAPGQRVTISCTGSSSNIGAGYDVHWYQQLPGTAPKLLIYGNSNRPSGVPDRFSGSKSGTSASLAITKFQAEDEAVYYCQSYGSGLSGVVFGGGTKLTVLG: 40 to 100%
mAb 5F2.1 (antibody, human IgG2, lambda, V domains shown, fully human IgG2 lambda, Campaign 2) VH: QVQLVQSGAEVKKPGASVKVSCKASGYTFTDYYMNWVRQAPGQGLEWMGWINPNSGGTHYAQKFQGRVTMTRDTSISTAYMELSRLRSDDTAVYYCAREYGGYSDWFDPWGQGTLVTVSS VL: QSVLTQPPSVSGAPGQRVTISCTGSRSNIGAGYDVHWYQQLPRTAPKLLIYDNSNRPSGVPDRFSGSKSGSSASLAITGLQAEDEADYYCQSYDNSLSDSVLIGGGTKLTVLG: 40 to 100%

Shifting focus to the binder that follows.
Let me know recorded percent of control (POC) of FACS Geo Mean for mAb 5B5.2 (antibody, human IgG2, lambda, V domains shown, fully human IgG2 lambda, Campaign 2; same chains as 5B5.1) VH: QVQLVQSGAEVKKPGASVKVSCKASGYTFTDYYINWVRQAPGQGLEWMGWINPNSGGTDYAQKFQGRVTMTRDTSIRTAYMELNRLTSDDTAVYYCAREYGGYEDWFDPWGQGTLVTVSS VL: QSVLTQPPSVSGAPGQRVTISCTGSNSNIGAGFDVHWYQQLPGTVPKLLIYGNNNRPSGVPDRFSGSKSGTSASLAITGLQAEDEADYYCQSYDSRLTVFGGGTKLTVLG , thanks. 40 to 100%
